Test: Water solubility by saturating water, lyophilizing and weighing
Type: physicochemical
Conditions: thermodynamic from solid; saturated water
Label label 1 when solubility >= 1000 µM; otherwise label 0.

Completed entries (count: 4):
(Q) Please check the record CCCCCCCCCCCCCCCC(=O)OC1Cc2c(O)cc(O)cc2OC1c1ccc(O)c(O)c1 (centres unmarked) and state if its solubility is at or above 1000 µM.
(A) label 0

(Q) Please check the record CCCCCCCCCCCCCC(=O)N[C@@H](C)C(=O)OC1Cc2c(O)cc(O)cc2OC1c1ccc(O)c(O)c1 (some centres unmarked) and state if its solubility is at or above 1000 µM.
(A) label 0

(Q) Please check the record CCCCCCCC(=O)OC1Cc2c(O)cc(O)cc2OC1c1ccc(O)c(O)c1 (centres unmarked) and state if its solubility is at or above 1000 µM.
(A) label 1

(Q) Please check the record CCCCCCCC(=O)N[C@@H](C)C(=O)OC1Cc2c(O)cc(O)cc2OC1c1ccc(O)c(O)c1 (some centres unmarked) and state if its solubility is at or above 1000 µM.
(A) label 1

New cases:
(Q) Please check the record CCCCCCCCCCCC(=O)OC1Cc2c(O)cc(O)cc2OC1c1ccc(O)c(O)c1 (centres unmarked) and state if its solubility is at or above 1000 µM.
(A) label 1

====

Entries and their Surface tension from CAC (γw) values follow.
Assay: Surface tension in water by the Wilhelmy plate method (surfactant properties)
Format: physicochemical
Conditions: 25 °C
Unit mN/m implied. Number only.

For orientation, consider the following solved cases.
For reference, reported Surface tension from CAC (γw) for CCCCCCCC(=O)OC1Cc2c(O)cc(O)cc2OC1c1ccc(O)c(O)c1 (stereo not shown) stands at 43

For reference, reported Surface tension from CAC (γw) for CCCCCCCCCCCCCCCC(=O)N[C@@H](C)C(=O)OC1Cc2c(O)cc(O)cc2OC1c1ccc(O)c(O)c1 (stereo partly shown) stands at 32

For reference, reported Surface tension from CAC (γw) for CCCCCCCCCCCC(=O)N[C@@H](C)C(=O)OC1Cc2c(O)cc(O)cc2OC1c1ccc(O)c(O)c1 (stereo partly shown) stands at 32

New cases:
For reference, reported Surface tension from CAC (γw) for CCCCCCCC(=O)N[C@@H](C)C(=O)OC1Cc2c(O)cc(O)cc2OC1c1ccc(O)c(O)c1 (stereo partly shown) stands at 35

====

Entries and their Minimum occupied area per molecule at the air–water interface (σ) values follow.
Experiment: Surface tension in water by the Wilhelmy plate method (surfactant properties)
Type: physicochemical
Details: 25 °C, calculated from curve log C vs. γ
Remember to follow the number with its unit.

For orientation, consider the following solved cases.
For reference, reported Minimum occupied area per molecule at the air–water interface (σ) for CCCCCCCCCCCC(=O)OC1Cc2c(O)cc(O)cc2OC1c1ccc(O)c(O)c1 (stereo not shown) stands at 17 Å^2/molecule

For reference, reported Minimum occupied area per molecule at the air–water interface (σ) for CCCCCCCCCCCCCCCC(=O)OC1Cc2c(O)cc(O)cc2OC1c1ccc(O)c(O)c1 (stereo not shown) stands at 29 Å^2/molecule

For reference, reported Minimum occupied area per molecule at the air–water interface (σ) for CCCCCCCC(=O)N[C@@H](C)C(=O)OC1Cc2c(O)cc(O)cc2OC1c1ccc(O)c(O)c1 (stereo partly shown) stands at 8 Å^2/molecule

# context switch: different molecule, same Minimum occupied area per molecule at the air–water interface (σ)
For reference, reported Minimum occupied area per molecule at the air–water interface (σ) for CCCCCCCCCCCCCC(=O)N[C@@H](C)C(=O)OC1Cc2c(O)cc(O)cc2OC1c1ccc(O)c(O)c1 (stereo partly shown) stands at 19 Å^2/molecule
